Hello, the source for this data is patent US20110002929A1, in case you need it.

Quick list: pEC50 per entry.
# assayed-system: T1, human RANK-L (human, UniProt O14788 140-317, limits assumed)
# T1 construct: Soluble protein, used coated, biotinylated or labelled in ELISA, AlphaScreen, FMAT and Biacore; also called hRANK-L; soluble human RANK-L
# T1 sequence (looked up): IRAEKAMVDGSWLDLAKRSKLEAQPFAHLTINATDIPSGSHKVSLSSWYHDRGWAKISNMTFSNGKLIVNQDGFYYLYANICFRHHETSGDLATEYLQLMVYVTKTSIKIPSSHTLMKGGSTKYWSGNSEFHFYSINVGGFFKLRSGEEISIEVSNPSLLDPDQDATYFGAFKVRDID
# experimental-details: ELISA (ED50), biotin-hRANK-L on neutravidin
pEC50: −log10 of the molar value.
result-type: pEC50

binder: RANKL17 (VHH, not shown: c-myc and His6 tags) VHH: EVQLVESGGGLVQVGDSLRLSCEASGRSRFSTYVMGWFRQAPGKEREFVAAVSWSSGNAYYIDSAKGRFATSRDTAKNIMYLQMNSLKPEDTAVYTCAAGRGYGLLSEYTQAPRYDYWGQGTQVTVSS
observed: 9.34
--
binder: RANKL7 (VHH, not shown: c-myc and His6 tags) VHH: EVQLVESEGGPVQSGGSLRLSCAASGRTFSVSTIAWFRQAPGEGREFVAAIYPSGRNAYVADSVKGRFTISRDNAKKTVYLQMNSLKPEDTAAYYCAAHQPSGSYYSAEAYAYWGQGTQVTVSS
observed: 9.42
